# EXPERIMENT DESCRIPTION: Thermal decomposition temperature by DSC
# Format: physicochemical
# REPORTED CONDITIONS: 10° C./min to 500° C., nitrogen gas stream
# Protocol: (3) Thermal Decomposition Temperature The apparatus EXSTAR6000DSC (trade name) manufactured by SII NanoTechnology Inc. was used. About 5 mg of each sample was placed in a non-sealed container made of aluminum, and the temperature was raised to 500° C. at the rate of temperature rise of 10° C./min in a nitrogen gas stream (30 mL/min). The temperature corresponding to a descending peak appeared in the baseline was defined as the thermal decomposition temperature.
MEASURED ENDPOINT: thermal decomposition temperature (°C)

Oc1ccc2ccc(O)c(C(c3ccc(-c4ccccc4)cc3)c3c(O)ccc4ccc(O)cc34)c2c1
250
Oc1ccc2c3c(ccc2c1)Oc1ccc2cc(O)ccc2c1C3c1ccc(C2c3c(ccc4cc(O)ccc34)Oc3ccc4cc(O)ccc4c32)cc1
410

1: Oc1ccc2c(C3(c4c(O)ccc5cc(O)ccc45)c4ccccc4-c4ccccc43)c(O)ccc2c1
2: Oc1cccc2c3c(ccc12)Oc1ccc2c(O)cccc2c1C3c1ccc(-c2ccccc2)cc1
**Query** Identify the entry with the smaller thermal decomposition temperature: 1 or 2 . Kindly state the label of the option you pick.
**Result** 1

* * *

# EXPERIMENT DESCRIPTION: Thermal decomposition temperature by DSC
# Format: physicochemical
# REPORTED CONDITIONS: 10° C./min to 500° C., nitrogen gas stream
# Procedure: (3) Thermal Decomposition Temperature The apparatus EXSTAR6000DSC (trade name) manufactured by SII NanoTechnology Inc. was used. About 5 mg of each sample was placed in a non-sealed container made of aluminum, and the temperature was raised to 500° C. at the rate of temperature rise of 10° C./min in a nitrogen gas stream (30 mL/min). The temperature corresponding to a descending peak appeared in the baseline was defined as the thermal decomposition temperature.
MEASURED ENDPOINT: thermal decomposition temperature (°C)

Oc1ccc2c(C(c3cc(C(c4c(O)ccc5cc(O)ccc45)c4c(O)ccc5cc(O)ccc45)cc(C(c4c(O)ccc5cc(O)ccc45)c4c(O)ccc5cc(O)ccc45)c3)c3c(O)ccc4cc(O)ccc34)c(O)ccc2c1 [BisN-14]
245

A: Oc1ccc2c(C(c3cccc4ccccc34)c3c(O)ccc4cc(O)ccc34)c(O)ccc2c1 [BisN-7]
B: Oc1ccc2ccc3c(c2c1)Oc1c(ccc2ccc(O)cc12)C3c1ccc(-c2ccccc2)cc1 [XBisN-5]
**Query** API: POST /compare with A and B ; response names the item with higher thermal decomposition temperature. Kindly state the label of the option you pick.
**Result** B

I: Oc1ccc2c(O)cccc2c1C(c1ccc(-c2ccccc2)cc1)c1c(O)ccc2c(O)cccc12 [BisN-4]
II: Oc1ccc2c3c(ccc2c1)Oc1ccc2cc(O)ccc2c1C31c2ccccc2-c2ccccc21 [XBisN-11]
**Query** Identify the entry with the smaller thermal decomposition temperature: I or II . Kindly state the label of the option you pick.
**Result** I
